experimental_system: TNFα (Homo sapiens)
Sequence (P01375 77-233 limits assumed): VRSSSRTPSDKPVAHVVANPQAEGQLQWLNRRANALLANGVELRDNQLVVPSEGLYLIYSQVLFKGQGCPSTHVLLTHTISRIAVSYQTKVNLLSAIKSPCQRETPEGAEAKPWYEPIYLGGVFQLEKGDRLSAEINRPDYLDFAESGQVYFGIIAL
assay_procedure: TNF induced HEK-Blue assay (NF-kB-driven secreted alkaline phosphatase reporter)
Assay type: cell-based
recorded_conditions: TNFα 0.5 ng/mL, HEK-Blue-CD40L cells, 18 h; read-out: TNF induced HEK-Blue assay IC50 value
parameter: IC50

>>> result("CC(Nc1c(Cl)cnc2ccc(-c3ccc(C(C)(C)O)cc3)cc12)c1ccoc1 (racemic)")
"< 1 µM"

Give a short answer stating reported IC50 for CC(C)(O)c1ncc(-c2ccc3ncc(Cl)c(CNc4ccccc4)c3c2)cn1 .
10 to 25 µM

Give a short answer stating reported IC50 for CC(Nc1c(Cl)cnc2cc(F)c(-c3cnc(C(C)(O)CO)nc3)cc12)c1ccccc1F (centres unmarked) [Example 254] .
< 1 µM

Give a short answer stating reported IC50 for C[C@@H](Nc1c(Cl)cnc2ccc(-c3ccc(CN4CCC4)cc3)cc12)c1ccccc1F .
10 to 25 µM

Give a short answer stating reported IC50 for CC(Nc1c(Cl)cnc2cc(F)c(-c3cnc(C4(O)CCS(=O)(=O)CC4)nc3)cc12)c1ccccc1F (centres unmarked) .
< 1 µM
